assayTarget: GDP-bound KRAS wild-type protein (Homo sapiens, UniProt P01116)
Sequence (P01116 1-188 isoform P01116-2): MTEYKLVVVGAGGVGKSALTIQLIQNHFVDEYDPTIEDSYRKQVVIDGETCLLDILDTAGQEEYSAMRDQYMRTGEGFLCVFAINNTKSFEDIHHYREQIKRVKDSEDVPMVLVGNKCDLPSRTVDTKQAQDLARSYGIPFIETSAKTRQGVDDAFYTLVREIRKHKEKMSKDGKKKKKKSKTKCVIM
procedureText: Binding to KRAS by surface plasmon resonance (SPR), dissociation constant KD
conditionSummary: Single Cycle Kinetics
quantityMeasured: pKd
Notebook: values listed as pKd are -log10 of the concentration (mol/L).

Can you look up the measured pKd of `CCC[C@H]1C(=O)N[C@@H]([C@@H](C)CC)C(=O)N(C2CC2)CC(=O)N(C)[C@H]2C/C(F)=C\CCN(C2=O)[C@@H](Cc2ccc(C)cc2)C(=O)N(C)CC(=O)N[C@@H](CCc2cc(F)c(C(F)(F)F)c(F)c2)C(=O)N2C[C@H](OCC)C[C@H]2C(=O)NC2(CCC2)C(=O)N(C)[C@@H](C2CCCC2)C(=O)N(C)[C@H](C(=O)N(C)C)CC(=O)N1C` for me?
9.06

Reported pKd for `C#CCN1CC(=O)N(C)[C@H]2C/C=C\CCN(C2=O)[C@@H](Cc2ccc(C(F)F)cc2)C(=O)N(C)CC(=O)N[C@@H](CCc2cc(F)c(C(F)(F)F)c(F)c2)C(=O)N2C[C@H](OC(C)C)C[C@H]2C(=O)N(C)C2(CCC2)C(=O)N(C)[C@@H](C(CC)CC)C(=O)N(C)[C@H](C(=O)N(C)C)CC(=O)N(C)[C@@H](COCCC)C(=O)N[C@@H]([C@@H](C)OC)C1=O` : what is it?
9.12

----------
Below: a set of entries, each annotated with reported Kd.
assayTarget: GDP-bound KRAS wild-type protein (Homo sapiens, UniProt P01116)
procedureText: Binding to KRAS by surface plasmon resonance (SPR), dissociation constant KD
conditionSummary: Single Cycle Kinetics, 1:1 binding model
I only need the number, in nM, no unit after it.

Consider the following illustrative entries.
>>> testvalue("CC[C@H](C)[C@@H]1NC(=O)[C@H](CC(C)C)N(C)C(=O)C[C@@H](C(=O)N(CC)CC)N(C)C(=O)[C@H](C2CCCC2)N(C)C(=O)C2(CCC2)NC(=O)[C@@H]2C[C@@H](C)CN2C(=O)[C@H](CCc2ccc(C(F)(F)F)c(OC)c2)NC(=O)CN(C)C(=O)[C@H](Cc2ccc(C)cc2)N2CC/C=C\\C[C@@H](C2=O)N(C)C(=O)CN(C)C1=O")
0.38
>>> testvalue("CCO[C@@H]1C[C@H]2C(=O)NC3(CCC3)C(=O)N(C)[C@@H](C(CC)CC)C(=O)N(C)[C@H](C(=O)N(C)C)CC(=O)N(C)[C@@H](C)C(=O)N[C@@H]([C@@H](C)CC)C(=O)N(C)CC(=O)N(C)[C@H]3C/C=C\\CCN(C3=O)[C@@H](Cc3ccc(C(F)(F)F)cc3)C(=O)N(C)CC(=O)N[C@@H](CCc3ccc4sccc4c3)C(=O)N2C1")
1.2
>>> testvalue("CCO[C@@H]1C[C@H]2C(=O)NC3(CCC3)C(=O)N(C)[C@@H](C(CC)CC)C(=O)N(C)[C@H](C(=O)N3CCOCC3)CC(=O)N(C)[C@@H](CC(C)C)C(=O)N[C@@H]([C@@H](C)CC)C(=O)N(C)CC(=O)N(C)[C@H]3C/C=C\\CCN(C3=O)[C@@H](Cc3ccc(C(F)(F)F)cc3)C(=O)N(C)CC(=O)N[C@@H](CCc3cc(F)c(C(F)(F)F)c(F)c3)C(=O)N2C1")
0.56
>>> testvalue("CC[C@H](C)[C@@H]1NC(=O)[C@H](CC)N(C)C(=O)C[C@@H](C(=O)N(C)C)N(C)C(=O)[C@H](C2CCCC2)N(C)C(=O)C2(CCCC2)N(C)C(=O)[C@@H]2C[C@@H](C)CN2C(=O)[C@H](CCc2cc(F)c(C(F)(F)F)c(F)c2)NC(=O)CN(C)C(=O)[C@H](Cc2ccc(C)cc2)N2CC/C=C\\C[C@@H](C2=O)N(C)C(=O)CN(C)C1=O")
0.59
>>> testvalue("CCO[C@@H]1C[C@H]2C(=O)NC3(CCC3)C(=O)N(C)[C@@H](C3CCCC3)C(=O)N(C)[C@H](C(=O)N(C)C)CC(=O)N(C)[C@@H](COC3CC3)C(=O)N[C@@H]([C@@H](C)CC)C(=O)N(C)CC(=O)N(C)[C@H]3C/C=C\\CCN(C3=O)[C@@H](Cc3ccc(C(F)(F)F)cc3)C(=O)N(C)CC(=O)N[C@@H](CCc3cc(F)c(C(F)(F)F)c(F)c3)C(=O)N2C1")
0.045

For the compound `CCO[C@@H]1C[C@H]2C(=O)NC3(CCCC3)C(=O)N(C)[C@@H](C3CCCC3)C(=O)N(C)[C@H](C(=O)N(C)C)CC(=O)N(C)[C@@H](CC)C(=O)N[C@@H]([C@@H](C)CC)C(=O)N(C)CC(=O)N(C)[C@H]3CC[C@@H](C)CN(C3=O)[C@@H](Cc3ccc(C(F)(F)F)cc3)C(=O)N(C)CC(=O)N[C@@H](CCc3cc(F)c(C(F)(F)F)c(F)c3)C(=O)N2C1` , what Kd is on record?
0.057

----------
Tested on: human lung cancer strain NCI-H441
Assay type: cell-based
Where a SMILES comes first, the peptide text is derived from it. Bridges are numbered along the chain shown (N, C = ends). [ ]: non-standard residue; d: D form. hPhe(3-Cl-4-CF3) = N[C@@H](CCc1ccc(C(F)(F)F)c(Cl)c1)C(=O)O; NPrPhe(4-CF3) = CCCN[C@@H](Cc1ccc(C(F)(F)F)cc1)C(=O)O; NMeGly(cPent) = CN[C@H](C(=O)O)C1CCCC1; NMeD = CN[C@@H](CC(=O)O)C(=O)O; NMeL = CN[C@@H](CC(C)C)C(=O)O; Ac4c = NC1(C(=O)O)CCC1; Sar = CNCC(=O)O
// boundary case: IC50 equal to 20 nM maps to not satisfied; strictly smaller maps to satisfied

Record excerpt, results attached:
>>> grouplabel("CCCN1C(=O)CN(C)C(=O)CNC(=O)[C@H]([C@@H](C)CC)NC(=O)[C@H](CC(C)C)N(C)C(=O)C[C@@H](C(=O)N(C)C)N(C)C(=O)[C@H](C2CCCC2)N(C)C(=O)C2(CCC2)NC(=O)[C@@H]2CCCN2C(=O)[C@H](CCc2ccc(C(F)(F)F)c(Cl)c2)NC(=O)CN(C)C(=O)[C@@H]1Cc1ccc(C(F)(F)F)cc1 [PP0418] ([NMeL]IG[Sar][NPrPhe(4-CF3)][Sar][hPhe(3-Cl-4-CF3)]P[Ac4c][NMeGly(cPent)][NMeD]-NMe2; lactam N-11)")
"satisfied"
>>> grouplabel("CCO[C@@H]1C[C@H]2C(=O)NC3(CCC3)C(=O)N(C)[C@@H](C3CCCC3)C(=O)N(C)[C@H](C(=O)N(C)CC)CC(=O)N(C)[C@@H](CC)C(=O)N[C@@H]([C@@H](C)CC)C(=O)N(C)CC(=O)N(C)[C@H]3C/C=C\\CCN(C3=O)[C@@H](CC3CCCCC3)C(=O)N(C)CC(=O)N[C@@H](CCc3cc(F)c(C(F)(F)F)c(F)c3)C(=O)N2C1")
"satisfied"
>>> grouplabel("CCO[C@@H]1C[C@H]2C(=O)NC3(CCCC3)C(=O)N(C)[C@@H](C3CCCC3)C(=O)N(C)[C@H](C(=O)N3CCOCC3)CC(=O)N(C)[C@@H](CC(C)C)C(=O)N[C@@H]([C@@H](C)CC)C(=O)N(C)CC(=O)N(C)[C@H]3CC(C)=CCN(C3=O)[C@@H](Cc3ccc(C(F)(F)F)cc3)C(=O)N(C)CC(=O)N[C@@H](CCc3cc(F)c(C(F)(F)F)c(F)c3)C(=O)N2C1")
"not satisfied"

Take the compound `CCO[C@@H]1C[C@H]2C(=O)NC3(CCC3)C(=O)N(C)[C@@H](C3CCCC3)C(=O)N3CCC[C@@H]3CC(=O)N(C)[C@@H](CC3CC3)C(=O)N[C@@H]([C@@H](C)CC)C(=O)N(C)CC(=O)N(C)[C@H]3C/C=C\CCN(C3=O)[C@@H](Cc3ccc(C(F)(F)F)cc3)C(=O)N(C)CC(=O)N[C@@H](CCc3ccc(C(F)(F)F)c(OC)c3)C(=O)N2C1` and say whether its IC50 is less than 20 nM.
not satisfied

----------
System: human lung cancer strain NCI-H441
Format: cell-based
quantityMeasured: pIC50
Reminder that pIC50 is minus the log10 of a molar concentration.

Looking for the measured pIC50 of `CCO[C@@H]1C[C@H]2C(=O)NC3(CCC3)C(=O)N(C)[C@@H](C3CCCC3)C(=O)N(C)[C@H](C(=O)N(C)CC)CC(=O)N(C)[C@@H](CC(C)C)C(=O)N[C@@H]([C@@H](C)CC)C(=O)N(C)CC(=O)N(C)[C@H]3C/C=C\CCN(C3=O)[C@@H](Cc3ccc(C(F)(F)F)cc3)C(=O)N(C)CC(=O)N[C@@H](CCc3ccc(C(F)(F)F)c(Cl)c3)C(=O)N2C1` , can you help?
8.14
